Consider the following compounds and their measured IC50 readings.
- TARGET_UNDER_TEST: NRAS G12C (Homo sapiens, UniProt P01111+P62937, G12C)
- Sequence (P01111 whole entry G12C): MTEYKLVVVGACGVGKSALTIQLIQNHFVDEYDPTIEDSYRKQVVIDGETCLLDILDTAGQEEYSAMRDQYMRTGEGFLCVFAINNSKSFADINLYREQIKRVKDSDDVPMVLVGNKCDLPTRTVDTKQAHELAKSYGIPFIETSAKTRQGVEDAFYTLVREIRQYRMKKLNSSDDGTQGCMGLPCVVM
- Sequence (P62937 whole entry): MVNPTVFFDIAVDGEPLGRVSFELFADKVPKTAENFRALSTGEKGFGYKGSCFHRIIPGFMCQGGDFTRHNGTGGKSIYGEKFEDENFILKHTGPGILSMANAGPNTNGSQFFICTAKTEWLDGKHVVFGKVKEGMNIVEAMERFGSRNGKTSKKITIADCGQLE
- MEASUREMENT_PROTOCOL: Disruption of BRAF RBD interaction with Ras (FRET / MOA assay, with Cyclophilin A)
- Assay type: biochemical
- CONDITION_INFO: NRAS G12C; read-out: NRAS G12C FRET data IC50

COMPOUND	IC50
CCn1c(-c2cccnc2[C@H](C)OC)c2c3cc(ccc31)-c1csc(n1)C[C@H](NC(=O)[C@H](C(C)C)N(C)C(=O)[C@@H]1C[C@@H]1C)C(=O)N1CCC[C@H](N1)C(=O)OCC(C)(C)C2	1 to 10 µM
CCN(CC)C1CN(C(=O)N(C)[C@H](C(=O)N[C@H]2Cc3nc(cs3)-c3ccc4c(c3)c(c(-c3cccnc3[C@H](C)OC)n4CC)CC(C)(C)COC(=O)[C@@H]3CCCN(N3)C2=O)C(C)C)C1	0.01 to 0.1 µM
CCn1c(-c2cccnc2[C@H](C)OC)c2c3cc(ccc31)-c1cccc(n1)C[C@H](NC(=O)[C@H](C(C)C)N(C)C(=O)N1CCC13CN(C(=O)C#CC(C)(C)N(C)C)C3)C(=O)N1CCCC(N1)C(=O)OCC(C)(C)C2 (some centres unmarked)	0.1 to 1 µM
CCn1c(-c2cccnc2[C@H](C)OC)c2c3cc(ccc31)-c1csc(n1)C[C@H](NC(=O)[C@H](COC1CN(C(=O)C#CC(C)(C)N(C)C)C1)OC)C(=O)N1CCC[C@H](N1)C(=O)OCC(C)(C)C2 (atropisomer, axis not shown)	< 0.01 µM
CO[C@@H](C)c1ncccc1-c1c2c3cc(ccc3n1C)-c1csc(n1)C[C@H](NC(=O)[C@H](C(C)C)N(C)C(C)=O)C(=O)N1CCC[C@H](N1)C(=O)OCC(C)(C)C2 (racemic)	> 10 µM

Q. Sample C=CC(=O)N(C)CC1CCN(C(=O)N(C)[C@H](C(=O)N[C@H]2Cc3nc(cs3)-c3ccc4c(c3)c(c(-c3cccnc3[C@H](C)OC)n4CC)CC(C)(C)COC(=O)C3CCCN(N3)C2=O)C(C)C)CC1 (some centres unmarked) — what was its IC50?
A. 0.01 to 0.1 µM

Q. Sample CCn1c(-c2cnccc2COC)c2c3cc(ccc31)-c1cc(O)cc(c1)C[C@H](NC(=O)[C@H](C(C)C)N(C)C(=O)[C@H]1CCOC1)C(=O)N1CCC[C@H](N1)C(=O)OCC(C)(C)C2 — what was its IC50?
A. 0.1 to 1 µM

Q. What does the record list as IC50 for C=CC(=O)N1CCO[C@H]2CCN(C(=O)N(C)[C@H](C(=O)N[C@H]3Cc4nc(cs4)-c4ccc5c(c4)c(c(-c4cccnc4[C@H](C)OC)n5CC)CC(C)(C)COC(=O)C4CCCN(N4)C3=O)C(C)C)C[C@@H]21 (some centres unmarked) ?
A. < 0.01 µM

Q. Quick check: IC50 of CCn1c(-c2cccnc2[C@H](C)OC)c2c3cc(ccc31)-c1csc(n1)C[C@H](NC(=O)[C@H](C(C)C)N(C)C(=O)N1C3CC1CS(=O)(=O)C3)C(=O)N1CCC[C@H](N1)C(=O)OCC(C)(C)C2 ?
A. 0.1 to 1 µM

Q. Please look up its IC50: CCn1c(-c2cnccc2COC)c2c3cc(ccc31)-c1cc(O)cc(c1)C[C@H](NC(=O)[C@H](C(C)C)N(C)C(=O)[C@@H]1CCOC1)C(=O)N1CCC[C@H](N1)C(=O)OCC(C)(C)C2
A. 0.1 to 1 µM

Q. Returns the measured IC50 for the input compound. Input: CCn1c(-c2cccnc2[C@H](C)OC)c2c3cc(ccc31)-c1cccc(c1)C[C@H](NC(=O)[C@@H](CN1CC[C@]3(CCN(C(=O)C#C[C@H]4COCCN4C)C3)C1=O)C(C)C)C(=O)N1CCCC(N1)C(=O)OCC(C)(C)C2 (some centres unmarked)
A. 0.01 to 0.1 µM

Q. What does the data say about its IC50? Entry: CCn1c(-c2cccnc2[C@H](C)OC)c2c3cc(ccc31)-c1csc(n1)C[C@H](NC(=O)[C@H](C(C)C)N(C)C(=O)N(C)C1CC1)C(=O)N1CCC[C@H](N1)C(=O)OCC(C)(C)C2
A. 0.01 to 0.1 µM

Q. Could you tell me which IC50 is on file for CCn1c(-c2cnccc2COC)c2c3cc(ccc31)-c1cc(O)cc(c1)C[C@H](NC(=O)[C@H](C(C)C)N(C)CC(F)(F)F)C(=O)N1CCC[C@H](N1)C(=O)OCC(C)(C)C2 ?
A. > 10 µM

Q. Find the recorded IC50 belonging to CCn1c(-c2cnccc2COC)c2c3cc(ccc31)-c1cc(O)cc(c1)C[C@H](NC(=O)[C@H](C(C)C)N(C)C(=O)[C@H]1CCNC1)C(=O)N1CCC[C@H](N1)C(=O)OCC(C)(C)C2 and report it.
A. 0.01 to 0.1 µM

Q. Consider the compound shown here: CCn1c(-c2cc(N3CCN(C)CC3)cnc2[C@H](C)OC)c2c3cc(ccc31)-c1cc(O)cc(c1)C[C@H](NC(=O)[C@H](C1CCCC1)N(C)C(=O)[C@H]1OCC[C@H]1c1ccccc1)C(=O)N1CCC[C@H](N1)C(=O)OCC(C)(C)C2 What is its recorded IC50?
A. 0.1 to 1 µM

Q. Dear colleague, I am looking for the recorded IC50 of the following compound: CCn1c(-c2cnccc2[C@H](C)OC)c2c3cc(ccc31)-c1cc(O)cc(c1)C[C@H](NC(=O)[C@H](C(C)C)N(C)C(C)=O)C(=O)N1CCC[C@H](N1)C(=O)OCC(C)(C)C2
A. 0.1 to 1 µM

Q. Name the recorded IC50 for CCn1c(-c2cccnc2[C@H](C)OC)c2c3cc(ccc31)-c1csc(n1)C[C@H](NC(=O)[C@H](C(C)C)N(C)C(=O)N1CC(C#N)(N(C)C)C1)C(=O)N1CCC[C@H](N1)C(=O)OCC(C)(C)C2 .
A. 0.01 to 0.1 µM

Origin of measurements: patent US20230233569A1
